Reference source: PubChem BioAssay (EPA / NIEHS)

- Measurement Notes: ATG_CMV_CIS: Attagene CIS-FACTORIAL HepG2 Assay for human CMV (Internal Marker) (AID 2282928);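 also: endpoint acts as a background internal control marker rather than a target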
- Reported Conditions: HepG2 CMV promoter reporter, transcription factor profiling; actives raise or lower the signal
Activity calls are given as the source filed them. The calls were made as follows: active = hit-call score of the fitted dose curve at least 0.9, where 1 is the maximum; inactive = score below 0.9.
Mark one answer only. Choices: y = active, n = inactive

INSERT INTO measurements (compound, answer_label) VALUES
  ('C1=CCCC=CCCC=CCC1', 'y'),
  ('Cc1ccc(N)cc1O', 'n'),
  ('CC(C)=CCCC(C)=CC=O', 'n');

[Q] Kindly provide the recorded test outcome for the following compound: CCC(C)(C)C(=O)O[C@H]1C[C@@H](C)C=C2C=C[C@H](C)[C@H](CC[C@@H]3C[C@@H](O)CC(=O)O3)[C@H]21
[A] n

[Q] Kindly provide the recorded test outcome for the following compound: NC(=O)NO
[A] n

[Q] Kindly provide the recorded test outcome for the following compound: Nc1nc2ncc(CNc3ccc(C(=O)N[C@@H](CCC(=O)O)C(=O)O)cc3)nc2c(=O)[nH]1
[A] n

[Q] Kindly provide the recorded test outcome for the following compound: COC(=O)c1c(Cl)c(Cl)c(C(=O)OC)c(Cl)c1Cl
[A] n

[Q] Kindly provide the recorded test outcome for the following compound: CC/C(=C\C(=N/O)C(N)=O)C(C)[N+](=O)[O-] (stereo not drawn)
[A] n

[Q] Kindly provide the recorded test outcome for the following compound: COCCOCCOCCOC
[A] n

[Q] Kindly provide the recorded test outcome for the following compound: CNS(=O)(=O)c1cc(C(=O)N2CCC(CCN3C4CCC3CC(n3c(C)nc5ccccc53)C4)(c3cccc(F)c3)CC2)c(Cl)cc1F (stereo not drawn)
[A] n

[Q] Kindly provide the recorded test outcome for the following compound: COC(=O)c1ccccc1O
[A] n
